Where do the numbers come from? From patent US20240254089A1.

Target: human MRGPR X4 (Homo sapiens, UniProt Q96LA9)
Construct: expressed in transfected cells
Sequence (Q96LA9 whole entry): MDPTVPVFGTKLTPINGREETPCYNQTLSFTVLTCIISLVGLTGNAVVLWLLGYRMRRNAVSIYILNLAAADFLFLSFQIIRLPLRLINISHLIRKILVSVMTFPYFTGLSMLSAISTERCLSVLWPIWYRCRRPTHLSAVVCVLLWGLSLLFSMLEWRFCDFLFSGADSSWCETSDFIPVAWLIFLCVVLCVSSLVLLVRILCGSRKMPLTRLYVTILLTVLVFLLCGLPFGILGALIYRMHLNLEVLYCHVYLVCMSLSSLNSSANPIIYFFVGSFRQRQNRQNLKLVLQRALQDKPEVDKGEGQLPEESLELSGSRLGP
Test: MRGPR X4 antagonist activity, IP-One Gq HTRF assay in stably transfected HEK cells
Type: cell-based
Procedure: HEK cells stably transfected to express human MIRGPR X4 were maintained in an incubator at 37° C. with 5% CO2 and grown in DMEM media with 10% fetal bovine serum (FBS) and […] each of sodium pyruvate, Glutamax, penicillin/streptomycin, and Geneticin. […] Cells were plated in a 384-well assay plate at 20,000 cells per well in 12 μL of Opti-MEM and kept in an incubator overnight. […] The plate was read on a Molecular Devices SpectraMax iD5 plate reader. […]
pIC50: −log10 of the molar value.
Quantity Measured: pIC50

O=C(NCCc1noc2ccccc12)c1nn(Cc2ccc(Cl)cc2)c2ccccc12    6.30 to 7.00
Cn1ncc2cc(Cn3nc(C(=O)NCCc4nnc5ccccn45)c4ccccc43)ccc21    6.00 to 6.30
N#Cc1cccc2c1c(C(=O)NCCc1nnc3ccccn13)nn2Cc1ccc(Cl)cc1    6.30 to 7.00

Prompt line: Reported pIC50 for Cn1cc(CNC(=O)c2nn(Cc3ccc(Cl)cc3)c3ccccc23)cn1 : what is it?
Response line: < 5.60
